Recorded measurements of MFI (solvent ratio), one per entry
target: T1, HLA-A*02:01 (human); assay: MHC class I stabilization on T2-A24 cells, flow cytometry, 100 ug/mL peptide
T1 construct: whole, on cells; MHC class I molecule, empty until peptide is added; detected with FITC anti-HLA-A02 antibody BB7.2

Form field: reported MFI (solvent ratio) of FLLVDCQKVM [FAM83B-derived peptide F231_10] 2 ratio to solvent
